Each entry below carries its recorded Euclidean distance.
- System: OVCAR4
- experiment: Euclidean distance of Cell Painting phenotypic profile (signed KS, 77 features) to DMSO centroid (dimensionless distance); 5 or 10 uM (library dependent); higher = stronger phenotypic change vs DMSO (phenoactivity)
- runParameters: 48 h
readoutLabel: Euclidean distance

INSERT INTO assay_data (compound, val) VALUES
  ('C=CC1=C(C(=O)O)N2C(=O)[C@@H](NC(=O)/C(=N\O)c3csc(N)n3)[C@H]2SC1', 0.686),
  ('CCCNC(=O)NS(=O)(=O)c1ccc(Cl)cc1 [Chlorpropamide]', 1.99),
  ('CC(Cc1ccc(O)c(O)c1)C(C)Cc1ccc(O)c(O)c1 (stereo not drawn) [Nordihydroguaiaretic acid (NDGA)]', 0.861),
  ('Cn1c(=O)n(-c2ccc(C(C)(C)C#N)cc2)c2c3cc(-c4cnc5ccccc5c4)ccc3ncc21', 4.78),
  ('O=C1CC[C@H](N2Cc3c(OCc4ccc(CN5CCOCC5)cc4)cccc3C2=O)C(=O)N1 [Iberdomide(CC220)]', 0.967),
  ('Nc1ccc(S(=O)(=O)Nc2ccnn2-c2ccccc2)cc1', 1.26),
  ('Cn1cnc2c(F)c(Nc3ccc(Br)cc3Cl)c(C(=O)NOCCO)cc21', 2.19),
  ('C[C@@H]1CCO[C@H]2Cn3cc(C(=O)NCc4ccc(F)cc4F)c(=O)c(O)c3C(=O)N12', 1.79);

###

Each entry below carries its recorded Euclidean distance.
- Tested on: FB
- experiment: Euclidean distance of Cell Painting phenotypic profile (signed KS, 77 features) to DMSO centroid (dimensionless distance); 5 or 10 uM (library dependent); higher = stronger phenotypic change vs DMSO (phenoactivity)
- runParameters: 48 h
Where a name gives a salt, the structure may show the parent alone.
readoutLabel: Euclidean distance

INSERT INTO assay_data (compound, targetsystem, val) VALUES
  ('O=C(O)c1cc(O)c(O)c(O)c1 [Gallic acid]', 'FB', 1.31),
  ('CN(C)C(=O)N[C@H]1CC[C@H](CCN2CCN(c3cccc(Cl)c3Cl)CC2)CC1 [Cariprazine HCl]', 'FB', 1.58),
  ('CN1CCC(OC(c2ccccc2)c2ccccc2)CC1 [Diphenylpyraline hydrochloride]', 'FB', 1.17),
  ('COc1c(C)c(C(=O)c2ccc(N)c(C(=O)O)c2)n2ccccc12', 'FB', 1.47),
  ('N#CSc1cc(SC#N)c(N)nc1N', 'FB', 1.25),
  ('CCCCCc1ccc(C)cc1O [Amylmetacresol]', 'FB', 0.859),
  ('Fc1cc(-c2cccc3ncc(-c4cnn(C5CCNCC5)c4)nc23)cc(F)c1CN1CCOCC1', 'FB', 3.84),
  ('O=C(Nc1cccc(Cl)c1)Nc1ncc(CCNc2ncnc3ccsc23)s1 [SNS-314 Mesylate]', 'FB', 1.73),
  ('Cc1cc(N2CCOCC2)ccc1Nc1nc(NC2CCCCC2)c2[nH]cnc2n1', 'FB', 1.29),
  ('CC(=O)Oc1ccccc1C(=O)O [Aspirin]', 'FB', 0.734);

###

Each entry below carries its recorded Euclidean distance.
- System: OVCAR4
- experiment: Euclidean distance of Cell Painting phenotypic profile (signed KS, 77 features) to DMSO centroid (dimensionless distance); 5 or 10 uM (library dependent); higher = stronger phenotypic change vs DMSO (phenoactivity)
- runParameters: 48 h
Counter-ions that a name gives are not always drawn.
readoutLabel: Euclidean distance

INSERT INTO assay_data (compound, val) VALUES
  ('COc1cc(N2CCC(N3CCN(C)CC3)CC2)ccc1Nc1ncc(Cl)c(Nc2ccccc2S(=O)(=O)C(C)C)n1', 3.35),
  ('Cn1cncc1[C@@](N)(c1ccc(Cl)cc1)c1ccc2c(c1)c(-c1cccc(Cl)c1)cc(=O)n2C', 2.15),
  ('NCCS [2-Aminoethanethiol]', 1.1),
  ('CCOC(=O)N[C@@H]1CC[C@@H]2[C@@H](C1)C[C@H]1C(=O)O[C@H](C)[C@H]1[C@H]2/C=C/c1ccc(-c2cccc(F)c2)cn1', 1.31),
  ('CNCC[C@H](Oc1cccc2ccccc12)c1cccs1 [Duloxetine HCl]', 1.46),
  ('FC(F)c1nc2ccccc2n1-c1nc(N2CCOCC2)nc(N2CCOCC2)n1', 3.13),
  ('CC(C)OC(=O)[C@H](C)N[P@](=O)(OC[C@H]1O[C@@H](n2ccc(=O)[nH]c2=O)[C@](C)(F)[C@@H]1O)Oc1ccccc1', 1.01),
  ('Cc1cc2ncc(C(=O)NCC(C)(C)NCC(=O)N3CCC[C@H]3C#N)cn2n1', 1.17),
  ('CC(C)(C)C(=O)OCOP(=O)(COCCn1cnc2c(N)ncnc21)OCOC(=O)C(C)(C)C', 3.18),
  ('CN(CCCCCCCCCCN(C)C(=O)Oc1cccc([N+](C)(C)C)c1)C(=O)Oc1cccc([N+](C)(C)C)c1 [Demecarium Bromide]', 1.24),
  ('CS(=O)(=O)c1cccc(C[C@H](NC(=O)c2c(Cl)cc3c(c2Cl)CCN(C(=O)c2ccc4ccoc4c2)C3)C(=O)O)c1', 1.27),
  ('O=C(O)CCCCCCCC(=O)O', 0.801),
  ('CC1(C)[C@@H](O[C@H]2O[C@H](C(=O)O)[C@@H](O)[C@H](O)[C@H]2O[C@@H]2O[C@H](C(=O)O)[C@@H](O)[C@H](O)[C@H]2O)CC[C@]2(C)[C@H]3C(=O)C=C4[C@@H]5C[C@@](C)(C(=O)O)CC[C@]5(C)CC[C@@]4(C)[C@]3(C)CC[C@@H]12 [Glycyrrhizin (Glycyrrhizic Acid)]', 1.47),
  ('O=c1ccc2ccc(OCCCCN3CCN(c4cccc5sccc45)CC3)cc2[nH]1', 1.15),
  ('N#C[C@@H]1CCCN1C(=O)CNC12CC3CC(CC(O)(C3)C1)C2', 1.21);
